Record: Ki reported on STAT3 (Homo sapiens, UniProt P40763).
Sequence (P40763 whole entry): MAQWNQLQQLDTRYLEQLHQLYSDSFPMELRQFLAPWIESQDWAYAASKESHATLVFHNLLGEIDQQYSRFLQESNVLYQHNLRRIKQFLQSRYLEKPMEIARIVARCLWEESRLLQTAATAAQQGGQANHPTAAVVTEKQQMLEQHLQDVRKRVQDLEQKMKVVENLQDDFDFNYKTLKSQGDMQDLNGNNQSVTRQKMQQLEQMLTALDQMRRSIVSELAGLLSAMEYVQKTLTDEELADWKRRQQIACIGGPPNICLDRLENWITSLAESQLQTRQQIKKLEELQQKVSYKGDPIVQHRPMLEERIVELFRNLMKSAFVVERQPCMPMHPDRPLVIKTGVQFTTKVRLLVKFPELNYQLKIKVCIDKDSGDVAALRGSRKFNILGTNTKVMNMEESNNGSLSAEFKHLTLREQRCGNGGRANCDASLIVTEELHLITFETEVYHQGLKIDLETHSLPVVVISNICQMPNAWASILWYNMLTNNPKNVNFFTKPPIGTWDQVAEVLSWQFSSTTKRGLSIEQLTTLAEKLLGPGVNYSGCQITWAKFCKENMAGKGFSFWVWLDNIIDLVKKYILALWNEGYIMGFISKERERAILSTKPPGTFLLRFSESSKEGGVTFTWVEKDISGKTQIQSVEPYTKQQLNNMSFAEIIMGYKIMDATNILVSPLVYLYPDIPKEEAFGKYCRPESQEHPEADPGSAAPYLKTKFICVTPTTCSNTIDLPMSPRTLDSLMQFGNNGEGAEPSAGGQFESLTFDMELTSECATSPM

Qu. What value of Ki on STAT3 (Homo sapiens, UniProt P40763) does C[C@@H]1CCC(c2cc3c4c(cncc4c2)[C@@H](C)C3)=C1C=O [323–2, (15S,2R)-delavatine A] have?
Ans. ~75 µM

Next compound, please.
Qu. What value of Ki on STAT3 (Homo sapiens, UniProt P40763) does C[C@@H]1CCC(c2cc3c4c(cncc4c2)[C@H](C)C3)=C1C=O [323–1, (15R,2R)-delavatine A] have?
Ans. ~94 µM
